Target: BAF3 FL KIT EX11DEL/D816H (Homo sapiens, UniProt P10721, D816H, cells depend on it, form not given)
Construct: "BAF3 FL KIT EX11DEL/ D816H"
Sequence (P10721 with tags, fused parts or gaps DEL557-558/D816H, form open): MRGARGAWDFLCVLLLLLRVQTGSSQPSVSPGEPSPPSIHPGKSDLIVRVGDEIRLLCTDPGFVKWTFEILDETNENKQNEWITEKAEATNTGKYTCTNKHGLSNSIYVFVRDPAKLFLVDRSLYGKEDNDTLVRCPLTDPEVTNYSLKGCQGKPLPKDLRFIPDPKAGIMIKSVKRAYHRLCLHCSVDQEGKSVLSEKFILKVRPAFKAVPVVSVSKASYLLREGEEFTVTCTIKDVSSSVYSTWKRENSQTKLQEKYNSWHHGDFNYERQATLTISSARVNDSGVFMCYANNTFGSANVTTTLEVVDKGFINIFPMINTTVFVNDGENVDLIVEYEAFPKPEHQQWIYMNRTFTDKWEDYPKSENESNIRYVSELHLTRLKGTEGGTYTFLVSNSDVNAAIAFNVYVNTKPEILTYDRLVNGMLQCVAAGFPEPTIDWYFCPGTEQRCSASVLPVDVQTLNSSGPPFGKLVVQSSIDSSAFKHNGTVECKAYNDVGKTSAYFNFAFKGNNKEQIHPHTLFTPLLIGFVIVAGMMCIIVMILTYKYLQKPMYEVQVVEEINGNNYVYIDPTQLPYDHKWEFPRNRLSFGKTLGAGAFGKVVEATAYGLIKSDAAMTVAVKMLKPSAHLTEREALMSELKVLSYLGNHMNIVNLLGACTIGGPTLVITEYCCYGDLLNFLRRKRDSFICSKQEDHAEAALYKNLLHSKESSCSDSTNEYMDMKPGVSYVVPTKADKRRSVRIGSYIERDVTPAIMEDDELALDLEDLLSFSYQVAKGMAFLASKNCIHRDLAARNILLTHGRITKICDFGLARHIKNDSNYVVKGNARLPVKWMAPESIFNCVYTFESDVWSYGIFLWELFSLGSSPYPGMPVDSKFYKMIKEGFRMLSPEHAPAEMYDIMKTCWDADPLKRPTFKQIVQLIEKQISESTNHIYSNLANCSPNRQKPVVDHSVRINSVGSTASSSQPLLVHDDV
Experiment: c-Kit assay: Ba/F3 KIT mutant viability (Cell Titer-Glo, 72 hours)
Format: cell-based
Conditions: viability after 72 hours
For each record, write down the corresponding GI50.

Query block: What value of GI50 has been recorded for this entry: Cc1ccc(C(=O)Nc2cc(C(F)(F)F)ccn2)cc1C#Cc1ccc2c(c1)ncn2C1CC1 [Compound I-13]
Result block: 100 to 10000 nM

Query block: What value of GI50 has been recorded for this entry: Cc1ccc(C(=O)Nc2cc(C(F)(F)F)ccn2)cc1C#Cc1ccc2c(c1)ncn2-c1cnn(C2CCN(C=O)CC2)c1 [Compound I-25]
Result block: 10 to 50 nM

Query block: What value of GI50 has been recorded for this entry: Cc1ccc(C(=O)Nc2ccc(C#N)c(C(F)(F)F)c2)cc1C#Cc1ccc2c(c1)ncn2-c1ccn(C)n1 [Compound I-37]
Result block: 10 to 50 nM

Query block: What value of GI50 has been recorded for this entry: Cc1ccc(C(=O)Nc2ccc(CN3CCCC3)c(C(F)(F)F)c2)cc1C#Cc1ccc2c(c1)ncn2-c1cnn(C)c1 [Compound I-29]
Result block: 10 to 50 nM

Query block: What value of GI50 has been recorded for this entry: Cn1cc(-n2cnc3cc(C#Cc4cc(NC(=O)c5cc(C(F)(F)F)ccn5)ccc4F)ccc32)cn1 [Compound I-52]
Result block: 100 to 10000 nM

Query block: What value of GI50 has been recorded for this entry: CCN(CC)CCn1cc(-n2cnc3cc(C#Cc4cc(NC(=O)c5cc(C(F)(F)F)ccn5)ccc4C)ccc32)cn1 [Compound I-42]
Result block: 100 to 10000 nM

###

Target: BAF3 FL KIT EX11DEL/T6701 (Homo sapiens, UniProt P10721, T670I, cells depend on it, form not given)
Construct: "BAF3 FL KIT EX11DEL/ T6701"
Sequence (P10721 with tags, fused parts or gaps DEL557-558/T670I, form open): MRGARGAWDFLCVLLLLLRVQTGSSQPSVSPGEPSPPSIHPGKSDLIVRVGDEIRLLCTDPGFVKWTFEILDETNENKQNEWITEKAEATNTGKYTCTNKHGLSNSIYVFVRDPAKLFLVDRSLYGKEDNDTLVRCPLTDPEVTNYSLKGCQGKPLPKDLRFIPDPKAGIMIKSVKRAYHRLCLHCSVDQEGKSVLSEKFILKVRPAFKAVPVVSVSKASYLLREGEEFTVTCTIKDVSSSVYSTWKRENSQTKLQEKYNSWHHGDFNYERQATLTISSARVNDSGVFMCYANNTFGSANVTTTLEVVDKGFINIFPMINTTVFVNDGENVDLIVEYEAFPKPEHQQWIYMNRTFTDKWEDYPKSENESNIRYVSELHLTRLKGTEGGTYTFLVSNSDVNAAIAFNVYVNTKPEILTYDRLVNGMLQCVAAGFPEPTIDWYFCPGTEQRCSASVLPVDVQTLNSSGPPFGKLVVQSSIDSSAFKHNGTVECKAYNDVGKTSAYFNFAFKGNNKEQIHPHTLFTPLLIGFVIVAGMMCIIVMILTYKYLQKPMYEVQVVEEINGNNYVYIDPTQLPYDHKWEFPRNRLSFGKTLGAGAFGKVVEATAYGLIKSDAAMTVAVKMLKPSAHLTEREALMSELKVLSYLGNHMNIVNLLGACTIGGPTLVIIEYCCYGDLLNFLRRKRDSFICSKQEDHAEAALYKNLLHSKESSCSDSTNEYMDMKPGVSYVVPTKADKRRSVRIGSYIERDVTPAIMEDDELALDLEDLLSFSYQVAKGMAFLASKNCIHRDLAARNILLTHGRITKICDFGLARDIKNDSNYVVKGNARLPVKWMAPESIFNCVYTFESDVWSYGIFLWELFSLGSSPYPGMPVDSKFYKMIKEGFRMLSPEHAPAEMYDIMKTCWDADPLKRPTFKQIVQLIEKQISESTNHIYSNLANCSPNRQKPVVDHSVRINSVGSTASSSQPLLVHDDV
Test: c-Kit assay: Ba/F3 KIT mutant viability (Cell Titer-Glo, 72 hours)
Type: cell-based
Conditions: EX11DEL/T6701, viability after 72 hours
Experimental: KIT cDNAs were synthesized by GenScript and cloned into the pLVX-IRES-Puro vector (Clontech). Viral particles were produced by transfecting pLVX-IRES-puro vectors containing KIT mutant genes into HEK293 cells (Invitrogen) using the Trans-Lentiviral ORF Packaging Kit (Thermo Scientific). 48 hours post-transfection, virus-containing supernatants were harvested and incubated for another 48-72 hours with parental Ba/F3 cells (DSMZ) in the presence of 10 ng/mL L-3 (R&D Systems). […]
MEASUREMENT_KIND: GI50

Query block: What value of GI50 has been recorded for this entry: Cc1ccc(NC(=O)c2cc(C(F)(F)F)ccn2)cc1C#Cc1ccc2c(c1)ncn2-c1cn[nH]c1 [Compound I-43]
Result block: 50 to 100 nM

Query block: What value of GI50 has been recorded for this entry: Cc1ccc(C(=O)Nc2cc(C(F)(F)F)ccn2)cc1C#Cc1ccc2c(c1)ncn2C1CCN(C)CC1 [Compound I-20]
Result block: 100 to 10000 nM

Query block: What value of GI50 has been recorded for this entry: Cc1ccc(C(=O)Nc2cc(C(F)(F)F)ccn2)cc1C#Cc1ccc2c(c1)ncn2CCN1CCOCC1 [Compound I-5]
Result block: 100 to 10000 nM

Query block: What value of GI50 has been recorded for this entry: Cc1ccc(C(=O)Nc2cc(C(F)(F)F)ccn2)cc1C#Cc1ccc2c(c1)ncn2-c1cn(C)nn1 [Compound I-24]
Result block: < 10 nM

Query block: What value of GI50 has been recorded for this entry: Cc1ccc(C(=O)Nc2ccc(CN3CCCC3)c(C(F)(F)F)c2)cc1C#Cc1ccc2c(c1)ncn2-c1cnn(C)c1 [Compound I-29]
Result block: 10 to 50 nM

Query block: What value of GI50 has been recorded for this entry: Cc1ccc(NC(=O)c2ccc(CN3CCCC3)c(C(F)(F)F)c2)cc1C#Cc1ccc2c(c1)ncn2-c1cnn(C)c1 [Compound I-47]
Result block: 50 to 100 nM

Query block: What value of GI50 has been recorded for this entry: Cc1ccc(NC(=O)c2cc(C(F)(F)F)ccn2)cc1C#Cc1ccc2c(c1)ncn2-c1cnn(CCO)c1 [Compound I-39]
Result block: < 10 nM

Query block: What value of GI50 has been recorded for this entry: Cc1ccc(C(=O)Nc2cc(C(F)(F)F)ccn2)cc1C#Cc1ccc2ncn(C)c2c1 [Compound I-11]
Result block: 100 to 10000 nM

Query block: What value of GI50 has been recorded for this entry: Cc1ccc(NC(=O)c2cc(C(F)(F)F)ccn2)cc1C#Cc1ccc2c(c1)ncn2-c1cnn(C2CCN(C)CC2)c1 [Compound I-40]
Result block: 10 to 50 nM

Query block: What value of GI50 has been recorded for this entry: Cc1ccc(C(=O)Nc2cc(C(F)(F)F)ccn2)cc1C#Cc1ccc2nc(N)[nH]c2c1 [Compound I-10]
Result block: 100 to 10000 nM

Query block: What value of GI50 has been recorded for this entry: Cn1cc(-n2cnc3cc(C#Cc4cccc(NC(=O)c5cc(C(F)(F)F)ccn5)c4)ccc32)cn1 [Compound I-49]
Result block: 10 to 50 nM

Query block: What value of GI50 has been recorded for this entry: Cc1ccc(C(=O)Nc2ccc(N3CCN(C)CC3)c(C(F)(F)F)c2)cc1C#Cc1ccc2c(c1)ncn2C [Compound I-22]
Result block: 100 to 10000 nM

Query block: What value of GI50 has been recorded for this entry: Cc1ccc(C(=O)Nc2cc(C(F)(F)F)ccn2)cc1C#Cc1ccc2c(c1)ncn2-c1cnn(C2CCN(C=O)CC2)c1 [Compound I-25]
Result block: < 10 nM

Query block: What value of GI50 has been recorded for this entry: CCN(CC)CCn1cc(-n2cnc3cc(C#Cc4cc(NC(=O)c5cc(C(F)(F)F)ccn5)ccc4C)ccc32)cn1 [Compound I-42]
Result block: 10 to 50 nM

Cited source: patent US11117883B2
